- Test system: Vibrio cholerae
- assay.info: growth AUC normalised to DMSO control (fraction of control); higher = less growth inhibition, active = hit call of the paper
- recorded.conditions: 20 µM
Counter-ions that a name gives are not always drawn.
measure: growth AUC normalised to DMSO control

Prompt line: Fill in reported growth AUC normalised to DMSO control for this entry: COc1ccc2[nH]c([S+]([O-])Cc3ncc(C)c(OC)c3C)nc2n1 (stereo not drawn) [Tenatoprazole]
Response line: 0.894 (inactive)

---
Prompt line: Supply reported growth AUC normalised to DMSO control belonging to this molecule: CC(C)C(=O)Nc1ccc([N+](=O)[O-])c(C(F)(F)F)c1 [Flutamide]
Response line: 1.01 (inactive)

Prompt line: Hello, please tell me recorded growth AUC normalised to DMSO control for this one: CC(C)(Oc1ccc(C2CC2(Cl)Cl)cc1)C(=O)O (stereo not drawn) [Ciprofibrate]
Response line: 0.997 (inactive)

Prompt line: Using known records, supply growth AUC normalised to DMSO control for CCN(CC)C(=O)Nc1ccc(OCC(O)CNC(C)(C)C)c(C(C)=O)c1 (stereo not drawn) [Celiprolol hydrochloride]
Response line: 0.99 (inactive)

Prompt line: Give reported growth AUC normalised to DMSO control value for CN(C)CC/C=C1/c2ccccc2COc2ccc(CC(=O)O)cc21 [Olopatadine hydrochloride]
Response line: 1.03 (inactive)

====

Recorded growth AUC normalised to DMSO control values for a group of compounds are listed next.
- Test system: Vibrio cholerae
- assay.info: growth AUC normalised to DMSO control (fraction of control); higher = less growth inhibition, active = hit call of the paper
- recorded.conditions: 20 µM
Structures can show the parent of a compound that is named as a salt.
Give the figure only, with no unit attached.

Prompt line: Retrieve growth AUC normalised to DMSO control on Vibrio cholerae; query CNCCCC1c2ccccc2C=Cc2ccccc21 [Protriptyline hydrochloride]
Response line: 0.997

Prompt line: # assay system Vibrio cholerae: give growth AUC normalised to DMSO control of CCCCOC(=O)c1ccc(O)cc1
Response line: 0.896

Prompt line: Provide growth AUC normalised to DMSO control, tested on Vibrio cholerae, for Clc1ccc2c(c1)C(N1CCNCC1)=Nc1ccccc1O2 .
Response line: 0.8

---
Prompt line: Give growth AUC normalised to DMSO control for C#C[C@]1(O)CC[C@H]2[C@@H]3[C@H](C)CC4=C(CCC(=O)C4)[C@H]3CC[C@@]21C tested on Vibrio cholerae.
Response line: 0.974

Prompt line: Give measured growth AUC normalised to DMSO control for CN(C)[C@@H]1C(=O)C(C(=O)NCNCCCC[C@H](N)C(=O)O)=C(O)[C@@]2(O)C(=O)C3=C(O)c4c(O)cccc4[C@@](C)(O)[C@H]3C[C@@H]12 (Vibrio cholerae).
Response line: 0.448

Prompt line: Write down measured growth AUC normalised to DMSO control (Vibrio cholerae) for this compound. Cc1c(Cl)cccc1Nc1ccccc1C(=O)O
Response line: 0.901

Prompt line: Give growth AUC normalised to DMSO control for O=C(NCCN1CCOCC1)c1ccc(Cl)cc1 [Moclobemide] tested on Vibrio cholerae.
Response line: 0.957

Prompt line: Specify growth AUC normalised to DMSO control for Cc1ccc(-c2cc(C(F)(F)F)nn2-c2ccc(S(N)(=O)=O)cc2)cc1 , system Vibrio cholerae.
Response line: 0.851

Prompt line: Give measured growth AUC normalised to DMSO control for C[C@H]1O[C@@H](O[C@H]2[C@@H](O)C[C@H](O[C@H]3[C@@H](O)C[C@H](O[C@H]4CC[C@@]5(C)[C@H](CC[C@@H]6[C@@H]5C[C@@H](O)[C@]5(C)[C@@H](C7=CC(=O)OC7)CC[C@]65O)C4)O[C@@H]3C)O[C@@H]2C)C[C@H](O)[C@@H]1O (Vibrio cholerae).
Response line: 0.973

Prompt line: Please tell me the measured growth AUC normalised to DMSO control for c1ccc(CN(CC2=NCCN2)c2ccccc2)cc1 [Antazoline hydrochloride] ; system: Vibrio cholerae.
Response line: 1.01

Prompt line: Provide measured growth AUC normalised to DMSO control on Vibrio cholerae for CC(C(=O)O)c1ccc2c(c1)Cc1cccnc1O2 (stereo not given) please.
Response line: 0.993

Prompt line: State measured growth AUC normalised to DMSO control of the compound CCC(=O)O[C@]1(C(=O)CCl)[C@@H](C)C[C@H]2[C@@H]3CCC4=CC(=O)C=C[C@]4(C)[C@@]3(F)[C@@H](O)C[C@@]21C [Clobetasol propionate] with Vibrio cholerae.
Response line: 1.02

Prompt line: Identify measured growth AUC normalised to DMSO control obtained with Vibrio cholerae for CCC(=O)O[C@]1(C(=O)SCF)[C@H](C)C[C@H]2[C@@H]3C[C@H](F)C4=CC(=O)C=C[C@]4(C)[C@@]3(F)[C@@H](O)C[C@@]21C [Fluticasone propionate] .
Response line: 1

Prompt line: Give growth AUC normalised to DMSO control for this entry on Vibrio cholerae: O=C1c2c(O)cccc2Cc2cccc(O)c21
Response line: 1.03

Prompt line: # assay system Vibrio cholerae: give growth AUC normalised to DMSO control of CCCCCN(C)CCC(O)(P(=O)(O)O)P(=O)(O)O [Ibandronate sodium]
Response line: 0.992

====

- Tested on: Yersinia pseudotuberculosis
- assay.info: growth AUC normalised to DMSO control (fraction of control); higher = less growth inhibition, active = hit call of the paper
- recorded.conditions: 20 µM
Structures can show the parent of a compound that is named as a salt.
// reported growth AUC normalised to DMSO control for each item listed
Give the figure only, with no unit attached.

Prompt line: Consider the compound CC(=O)OC[C@H]1O[C@@H]([S-])[C@H](OC(C)=O)[C@@H](OC(C)=O)[C@@H]1OC(C)=O.CCP(CC)CC.[Au+] and give its recorded growth AUC normalised to DMSO control.
Response line: 0.672

Prompt line: Look up growth AUC normalised to DMSO control of Cc1onc(-c2c(Cl)cccc2Cl)c1C(=O)N[C@@H]1C(=O)N2[C@@H]1SC(C)(C)[C@@H]2C(=O)O [Dicloxacillin sodium salt hydrate] and report it.
Response line: 1.01

Prompt line: State, in one line, measured growth AUC normalised to DMSO control of Nc1ccn([C@@H]2O[C@H](CO)[C@@H](O)C2(F)F)c(=O)n1
Response line: 1.03

Prompt line: Annotate the compound c1ccc2c(CC3=NCCN3)cccc2c1 [Naphazoline hydrochloride] with its measured growth AUC normalised to DMSO control.
Response line: 1

Prompt line: Respond only with growth AUC normalised to DMSO control recorded for CCN(CC)CCNC(=O)COc1ccc(OC)cc1 [Mefexamide hydrochloride]
Response line: 1.01

Prompt line: Name the recorded growth AUC normalised to DMSO control of the item CC(Oc1ccccc1)C(=O)N[C@@H]1C(=O)N2[C@@H]1SC(C)(C)[C@@H]2C(=O)O (stereo partly specified) [Phenethicillin potassium salt] in your answer.
Response line: 0.898

More entries:
Prompt line: # return recorded growth AUC normalised to DMSO control for entry COc1ccccc1OCC(O)CN1CCN(CC(=O)Nc2c(C)cccc2C)CC1 (stereo unspecified)
Response line: 1.01

Prompt line: Please indicate growth AUC normalised to DMSO control recorded for CCOC(=O)[C@H](CCc1ccccc1)N[C@@H](C)C(=O)N1CCC[C@H]1C(=O)O [Enalapril maleate]
Response line: 1.02

Prompt line: Let me know recorded growth AUC normalised to DMSO control for COCCc1ccc(OCC(O)CNC(C)C)cc1 (stereo not drawn) [Metoprolol-(+)-tartrate salt] , thanks.
Response line: 0.996

Prompt line: Supply reported growth AUC normalised to DMSO control belonging to this compound: Cn1c(=O)c2c(ncn2C)n(C)c1=O
Response line: 1.01

Prompt line: Please look at this compound and report its growth AUC normalised to DMSO control: CC(C)(Oc1ccc(C2CC2(Cl)Cl)cc1)C(=O)O (stereo unspecified) [Ciprofibrate]
Response line: 0.995

====

The reader will find reported growth AUC normalised to DMSO control values listed item by item below.
- Test system: Yersinia pseudotuberculosis
- assay.info: growth AUC normalised to DMSO control (fraction of control); higher = less growth inhibition, active = hit call of the paper
- recorded.conditions: 20 µM
Counter-ions that a name gives are not always drawn.
Please give the numeric answer without any surrounding text.

Prompt line: Fill in growth AUC normalised to DMSO control for Cc1nnc(NS(=O)(=O)c2ccc(N)cc2)s1 tested with Yersinia pseudotuberculosis.
Response line: 1.01

Prompt line: Give growth AUC normalised to DMSO control for NCCc1ccc(O)c(O)c1 [Dopamine hydrochloride] tested on Yersinia pseudotuberculosis.
Response line: 1.01

Prompt line: Write growth AUC normalised to DMSO control of Nc1nc2ccc(OC(F)(F)F)cc2s1 [Riluzole hydrochloride] ; system used: Yersinia pseudotuberculosis
Response line: 0.984

---
Prompt line: Find growth AUC normalised to DMSO control for Clc1ccc(Nc2nnc(Cc3ccncc3)c3ccccc23)cc1 on Yersinia pseudotuberculosis and write it down.
Response line: 1.02

Prompt line: Look up and report measured growth AUC normalised to DMSO control (Yersinia pseudotuberculosis) for the following compound: NS(=O)(=O)c1cc2c(cc1Cl)NC(C(Cl)Cl)NS2(=O)=O (stereo not given) [Trichlormethiazide]
Response line: 0.986

Prompt line: Give growth AUC normalised to DMSO control for CCN(CC)CCNC(=O)c1cc(Br)c(N)cc1OC [Bromopride] tested on Yersinia pseudotuberculosis.
Response line: 1

Prompt line: Enter measured growth AUC normalised to DMSO control, system Yersinia pseudotuberculosis, for the compound shown: CC=C(C)C(=O)OC1C(OC(C)=O)C2(CO)C(O)CC3(C)C(=CCC4C5(C)CCC(OC6OC(C(=O)O)C(OC7OC(CO)C(O)C(O)C7O)C(O)C6OC6OC(CO)C(O)C(O)C6O)C(C)(CO)C5CCC43C)C2CC1(C)C (stereo not given)
Response line: 0.999

Prompt line: Report the value of growth AUC normalised to DMSO control obtained on Yersinia pseudotuberculosis for Nc1ncn(C2OC(CO)C(O)C2O)c(=O)n1 (stereo not given) .
Response line: 1.04

Prompt line: Report value: growth AUC normalised to DMSO control, system: Yersinia pseudotuberculosis, compound: CN[C@H](CC(C)C)C(=O)N[C@H]1C(=O)N[C@@H](CC(N)=O)C(=O)N[C@H]2C(=O)N[C@H]3C(=O)N[C@H](C(=O)N[C@H](C(=O)O)c4cc(O)cc(O)c4-c4cc3ccc4O)[C@H](O)c3ccc(c(Cl)c3)Oc3cc2cc(c3O[C@@H]2O[C@H](CO)[C@@H](O)[C@H](O)[C@H]2O[C@H]2C[C@](C)(N)[C@H](O)[C@H](C)O2)Oc2ccc(cc2Cl)[C@H]1O [Vancomycin hydrochloride]
Response line: 0.981

Prompt line: GET growth AUC normalised to DMSO control | system: Yersinia pseudotuberculosis | item: CC1=C(C(=O)O)N2C(=O)[C@@H](NC(=O)[C@H](N)c3ccc(O)cc3)[C@H]2SC1
Response line: 0.997
